src = patent US20050256058A1

Biological target: T1, Caspase-6 (UniProt P55212)
T1 sequence (looked up): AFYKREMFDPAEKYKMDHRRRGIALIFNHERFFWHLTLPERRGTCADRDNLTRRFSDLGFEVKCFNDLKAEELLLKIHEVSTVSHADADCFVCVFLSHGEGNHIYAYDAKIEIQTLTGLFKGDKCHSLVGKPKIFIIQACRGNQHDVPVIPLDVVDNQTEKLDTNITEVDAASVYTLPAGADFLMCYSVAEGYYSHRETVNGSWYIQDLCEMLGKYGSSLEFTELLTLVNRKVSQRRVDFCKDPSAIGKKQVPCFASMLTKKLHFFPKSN
Assay: cell-based or functional assay
Numbered stars: 1 amine (or outer) side, 2 acyl side, 3 side chain; on linkers, the order of the positions; unused ones are H or OH. Square brackets hold non-standard residues; d marks the D form. * marks the point of attachment. CH═CH‑CON(CH2Ph)2 = O=C(/C=C/*)N(Cc1ccccc1)Cc1ccccc1; AAsp = aza-Asp, O=C(N(CC(=O)[*:3])N[*:1])[*:2]; CH═CH‑COOEt = CCOC(=O)/C=C/*; Cbz = O=C(OCc1ccccc1)*
Measured k2 of individual entries

binder	k2 [M⁻¹ s⁻¹]
Cbz-IET[AAsp]-{CH═CH‑CON(CH2Ph)2} (SMILES CC[C@H](C)[C@H](NC(=O)OCc1ccccc1)C(=O)N[C@@H](CCC(=O)O)C(=O)N[C@H](C(=O)NN(CC(=O)O)C(=O)/C=C/C(=O)N(Cc1ccccc1)Cc1ccccc1)[C@@H](C)O) [Cbz-Ile-Glu-Thr-AAsp-CH═CH-CON(CH2Ph)2]	83900
Cbz-IET[AAsp]-{CH═CH‑CONHPh} [Cbz-Ile-Glu-Thr-AAsp-CH═CH-CONHPh]	99200
Cbz-IET[AAsp]-{CH═CH‑COOEt} (SMILES CCOC(=O)/C=C/C(=O)N(CC(=O)O)NC(=O)[C@@H](NC(=O)[C@H](CCC(=O)O)NC(=O)[C@@H](NC(=O)OCc1ccccc1)[C@@H](C)CC)[C@@H](C)O) [Cbz-Ile-Glu-Thr-AAsp-CH═CH-COOEt]	88700
Cbz-IET[AAsp]-{CH═CH‑CONHCH2Ph} [Cbz-Ile-Glu-Thr-AAsp-CH═CH-CONHCH2Ph]	16800
